system: MDA-MB-231; experiment: Antiproliferative activity against human MDA-MB-231 cells assessed as cell growth inhibition measured after 72 hrs by MTT assay; format: functional, cell-based; details: MDA-MB-231, 72 h
Measured Parameter: IC50 (nM)
Record the value in nM, omitting the unit from your answer.

Recall the reported IC50 of "COc1ccc(N(C)c2nc(C)nc3ccccc23)cc1OCCCC(=O)NO" on MDA-MB-231 and write it down. 31

====

tested on: A2780S; experiment: Antiproliferative activity against human A2780S cells assessed as cell growth inhibition measured after 72 hrs by MTT assay; assay type: functional, cell-based
Measured Parameter: IC50 (nM)
Report only the number, with the unit nM understood.

Name the recorded IC50 of the compound listed here: "COc1ccc(N(C)c2nc(C)nc3ccccc23)cc1OCCCC(=O)NO" 31

Provenance of the data: ChEMBL document CHEMBL5226311
